- Test system: biotinyl-Val-oxazolone
- assayNotes: self-aminoacylation, catalytic enhancement (BVO) (fold over background); higher = more active; k-Seq, kA / k0A0; sequences stand for … in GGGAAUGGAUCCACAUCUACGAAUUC…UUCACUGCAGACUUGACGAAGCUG
Variants at the floor of the assay were thinned out.
Listed next: entries and their corresponding self-aminoacylation.
resultType: self-aminoacylation

INSERT INTO measurements (sequencecontent, system, resulttype, assayresult) VALUES
  ('ACGCACCUAGGUCAUCGGGUG [Fam2.2 aminoacylation ribozyme variant]', 'biotinyl-Val-oxazolone', 'self-aminoacylation', 3.55),
  ('UUUCACCUAUGUCAUCGGGUG [Fam2.2 aminoacylation ribozyme variant]', 'biotinyl-Val-oxazolone', 'self-aminoacylation', 3.56),
  ('CAACACUUCAAGCAAUCGCUC [Fam1B.1 aminoacylation ribozyme variant]', 'biotinyl-Val-oxazolone', 'self-aminoacylation', 1.57),
  ('AAGCUUGCUAAUAGUCGCGAG [Fam3.1 aminoacylation ribozyme variant]', 'biotinyl-Val-oxazolone', 'self-aminoacylation', 1.9),
  ('AAGUUUGCGAAAAGUCGCAAG [Fam3.1 aminoacylation ribozyme variant]', 'biotinyl-Val-oxazolone', 'self-aminoacylation', 1.43),
  ('AUUCACCCAGGUCAACGGGUG [Fam2.2 aminoacylation ribozyme variant]', 'biotinyl-Val-oxazolone', 'self-aminoacylation', 2.53),
  ('CUACUUCAAACCAUCGCUCUG [Fam1A.1 aminoacylation ribozyme variant]', 'biotinyl-Val-oxazolone', 'self-aminoacylation', 0.982),
  ('CCACACUUCGAGCAAACGGUC [Fam1B.1 aminoacylation ribozyme variant]', 'biotinyl-Val-oxazolone', 'self-aminoacylation', 0.655),
  ('CUACUUCAACCAUUCGGUCUG [Fam1A.1 aminoacylation ribozyme variant]', 'biotinyl-Val-oxazolone', 'self-aminoacylation', 1.26),
  ('ACUCACCUACGUCAUCGGGUG [Fam2.2 aminoacylation ribozyme variant]', 'biotinyl-Val-oxazolone', 'self-aminoacylation', 4.69),
  ('CCACACAUCAAGCAAUCGUUC [Fam1B.1 aminoacylation ribozyme variant]', 'biotinyl-Val-oxazolone', 'self-aminoacylation', 0.783),
  ('ACUCACCUAGGGCAUCGGGUG [Fam2.2 aminoacylation ribozyme variant]', 'biotinyl-Val-oxazolone', 'self-aminoacylation', 3.83),
  ('CUACUUCGAACAAUCGGUCCG [Fam1A.1 aminoacylation ribozyme variant]', 'biotinyl-Val-oxazolone', 'self-aminoacylation', 0.738),
  ('AAGUUUGCUAAUGGUCCCAAG [Fam3.1 aminoacylation ribozyme variant]', 'biotinyl-Val-oxazolone', 'self-aminoacylation', 1),
  ('AUUCACCUCGGUCAUCGGUUG [Fam2.2 aminoacylation ribozyme variant]', 'biotinyl-Val-oxazolone', 'self-aminoacylation', 1.07),
  ('AAGUUUGCUAAUAGGGGCAAG [Fam3.1 aminoacylation ribozyme variant]', 'biotinyl-Val-oxazolone', 'self-aminoacylation', 0.649),
  ('AUUCACCAAAGUCAUCGGGUG [Fam2.2 aminoacylation ribozyme variant]', 'biotinyl-Val-oxazolone', 'self-aminoacylation', 8.23),
  ('CUACUUCAAAUAAUCGGUCAG [Fam1A.1 aminoacylation ribozyme variant]', 'biotinyl-Val-oxazolone', 'self-aminoacylation', 0.83),
  ('AUCACCCUGGUCAUCGCGUGA [Fam2.1 aminoacylation ribozyme variant]', 'biotinyl-Val-oxazolone', 'self-aminoacylation', 17.1),
  ('GUUCACCAAGGUCAUCGGGUG [Fam2.2 aminoacylation ribozyme variant]', 'biotinyl-Val-oxazolone', 'self-aminoacylation', 4.45),
  ('CCACACUUCAAGAAAUCGGAC [Fam1B.1 aminoacylation ribozyme variant]', 'biotinyl-Val-oxazolone', 'self-aminoacylation', 0.685),
  ('AUUCACGUAGGUCAUCGGGUU [Fam2.2 aminoacylation ribozyme variant]', 'biotinyl-Val-oxazolone', 'self-aminoacylation', 2.74),
  ('AUUACCCUGGCCAGCGAGUGA [Fam2.1 aminoacylation ribozyme variant]', 'biotinyl-Val-oxazolone', 'self-aminoacylation', 3.29),
  ('AUUUCCCUGGUCAUCGAGUAA [Fam2.1 aminoacylation ribozyme variant]', 'biotinyl-Val-oxazolone', 'self-aminoacylation', 1.83),
  ('CUAUUUCAAACAGUCGGUCUG [Fam1A.1 aminoacylation ribozyme variant]', 'biotinyl-Val-oxazolone', 'self-aminoacylation', 0.8),
  ('UUUACCCUGGUCAGCGAGUGA [Fam2.1 aminoacylation ribozyme variant]', 'biotinyl-Val-oxazolone', 'self-aminoacylation', 2.96),
  ('CUACUCCAAACAAGCGGUCUG [Fam1A.1 aminoacylation ribozyme variant]', 'biotinyl-Val-oxazolone', 'self-aminoacylation', 1.14);
